- assay.remarks: chemical genetic growth profiling, strain panel (AID 1159580);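 also: tested at 20 µM; growth read once vehicle control cultures reached saturation at 30 °C; 1 = growth at the plate median or of vehicle wells; lower values mean less growth of the strain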
- assay.setup: S. cerevisiae deletion strains, growth OD, locus YOR316C, strain cot1, stronger effect = lower value
The campaign covered roughly 5,500 compounds. About 2,000 (36%) were called active. Roughly 18% stayed inconclusive and do not appear here. The list shows a part of the results.
Recorded normalized growth values for a group of molecules are listed next.
In your answer, state the number alone without any accompanying words.

Example results:
{"molecule": "CCOP(=S)(OCC)Oc1cc(C)nc(C(C)C)n1", "normalized growth": 0.975}
{"molecule": "CCOP(=S)(OCC)Oc1nc(Cl)c(Cl)cc1Cl", "normalized growth": 0.991}
{"molecule": "C#C[C@]1(O)CCC2C3CCC4=CC(=O)CC[C@@H]4C3CC[C@@]21CC (stereo partly specified)", "normalized growth": 0.989}
{"molecule": "OC(CCN1CCCC1)(c1ccccc1)C1CCCCC1 (stereo unspecified)", "normalized growth": 0.97}
{"molecule": "COC(=O)Nc1nc2ccc(Sc3ccccc3)cc2[nH]1", "normalized growth": 0.998}
{"molecule": "CC(=O)O[C@H]1CC[C@@]2(C)C(CC[C@]3(C)C2CC=C2C4CC(C)(C)CC[C@]4(C)CC[C@]23C)C1(C)C (stereo partly specified)", "normalized growth": 1.01}
{"molecule": "CC(=O)O[C@H]1CC[C@@]2(C)C(CC[C@]3(C)C2C(=O)C=C2C4[C@@H](C)[C@H](C)CC[C@]4(C(=O)O)CC[C@]23C)C1(C)C (stereo partly specified)", "normalized growth": 0.995}
{"molecule": "COc1ccc2c(c1)c(CC(=O)O)c(C)n2C(=O)c1ccc(Cl)cc1", "normalized growth": 0.985}
{"molecule": "CC(C)=CCCC1(C)C=Cc2c(O)c3c(c(CC=C(C)C)c2O1)OC12C(=CCCC1C(C)(C)O[C@@]2(C/C=C(\\C)C(=O)O)C(=O)O)C3=O (stereo partly specified)", "normalized growth": 0.979}
{"molecule": "COC(=O)Nc1nc2ccc(C(=O)c3ccccc3)cc2[nH]1", "normalized growth": 1}

Next:
Param item = C[C@@H]1OC(O[C@H]2C(O[C@H]3CC[C@@]4(C)C(CC[C@]5(C)C4CC=C4C6CC(C)(C)CC[C@]6(C(=O)O)CC[C@]45C)[C@]3(C)CO)OC[C@H](O)[C@@H]2O)[C@H](O)[C@H](O)[C@H]1O (stereo partly specified) ; retrieve measured normalized growth. 0.0649
